Tested on: MET
Assay: MET biochemical kinase assay
Design: species or system human; concentration or dose not given beside the values
// assign yes (1) if Met Kinase % Inhibition falls strictly below 40%, else no (0) (ties count as no (0))

Cc1c(Br)ccc2c1C(=Cc1ccc(O)c(C(C)(C)C)c1)C(=O)N2 :: yes (1)
Cc1cc(C=C2C(=O)Nc3ccc(CCCl)cc32)cc(C)c1O :: no (0)
O=C1Nc2ccc(CCCl)cc2C1=Cc1cc(Cl)ccc1O :: no (0)

As a next step, examine the molecule that follows.
Record O=C1Nc2ccc(I)cc2C1=Cc1cccc(F)c1O : is its Met Kinase % Inhibition strictly below 40%?
no (0)

###

Biological target: PDGF-R (Homo sapiens)
Sequence (P09619 33-1106, species assumed): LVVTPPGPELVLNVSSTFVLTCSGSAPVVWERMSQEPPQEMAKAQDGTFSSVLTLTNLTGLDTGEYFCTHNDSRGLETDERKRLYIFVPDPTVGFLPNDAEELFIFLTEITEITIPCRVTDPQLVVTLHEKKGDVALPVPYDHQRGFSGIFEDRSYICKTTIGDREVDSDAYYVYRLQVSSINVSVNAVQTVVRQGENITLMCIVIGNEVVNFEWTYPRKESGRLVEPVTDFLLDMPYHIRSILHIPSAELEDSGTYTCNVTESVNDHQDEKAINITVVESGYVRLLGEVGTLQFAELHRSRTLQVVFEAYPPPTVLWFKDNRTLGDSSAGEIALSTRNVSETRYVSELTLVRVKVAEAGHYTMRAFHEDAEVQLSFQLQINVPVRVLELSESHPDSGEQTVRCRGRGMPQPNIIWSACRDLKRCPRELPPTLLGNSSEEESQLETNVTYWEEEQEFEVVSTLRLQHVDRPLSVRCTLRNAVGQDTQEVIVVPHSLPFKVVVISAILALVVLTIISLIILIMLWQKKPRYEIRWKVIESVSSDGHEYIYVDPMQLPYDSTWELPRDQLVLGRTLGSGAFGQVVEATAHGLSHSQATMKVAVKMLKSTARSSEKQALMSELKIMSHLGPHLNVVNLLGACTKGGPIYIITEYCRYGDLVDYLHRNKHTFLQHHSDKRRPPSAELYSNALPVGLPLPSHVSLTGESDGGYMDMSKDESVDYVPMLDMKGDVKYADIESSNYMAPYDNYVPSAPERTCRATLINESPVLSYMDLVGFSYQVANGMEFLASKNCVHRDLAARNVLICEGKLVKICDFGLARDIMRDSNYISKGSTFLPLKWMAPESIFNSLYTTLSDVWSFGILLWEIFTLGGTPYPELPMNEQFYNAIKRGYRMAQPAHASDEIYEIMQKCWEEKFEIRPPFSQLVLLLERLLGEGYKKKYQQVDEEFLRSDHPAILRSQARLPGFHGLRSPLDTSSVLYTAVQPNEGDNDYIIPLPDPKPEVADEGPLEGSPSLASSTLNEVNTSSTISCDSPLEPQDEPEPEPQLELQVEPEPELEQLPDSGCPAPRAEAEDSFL
Test: PDGF-R ELISA
Type: cell-based
endpoint.name: PDGF Kinase %Inhibition (%)
Give bare numbers, in %.

Below, each entry is followed by its recorded PDGF Kinase %Inhibition result.
COc1cc(C)cc(O)c1C=C1C(=O)Nc2ccc(CCCl)cc21 [10725/G06] :: 27.5
O=C1Nc2ccc(CCCl)cc2C1=Cc1sccc1Br [10725/G02] :: -11.8
COc1cc(OC)c(OC)cc1C=C1C(=O)Nc2ccc(S(=O)(=O)N3CCOCC3)cc21 [10730/F03] :: 1.5
O=C1Nc2ccc(S(=O)(=O)Nc3ccc(C(F)(F)F)cc3)cc2C1=Cc1ccc(N2CCOCC2)cc1 [10725/E08] :: 48.6
O=C1Nc2ccc(CCCl)cc2C1=Cc1ccccn1 [10729/G07] :: 14.4
COc1cc(C=C2C(=O)Nc3ccc(I)cc32)cc2c1OCO2 [10728/B11] :: -12.4
O=C1Nc2ccc(I)cc2C1=Cc1sccc1Br [10725/B02] :: -7.5
O=C1Nc2ccc(S(=O)(=O)Nc3ccc(C(F)(F)F)cc3)cc2C1=Cc1ccc2c(c1)Cc1ccccc1-2 [10728/E06] :: 12.0

Annotate the molecule CNS(=O)(=O)c1ccc2c(c1)C(=Cc1cc(Cl)ccc1O)C(=O)N2 [10734/D04] with its measured PDGF Kinase %Inhibition.
13.5

###

Answer each item with its documented PDGF Kinase %Inhibition.
Molecular target: PDGF-R (Homo sapiens)
Assay: PDGF-R ELISA
Assay type: cell-based
Source text: A PDGF-R ELISA is described in International Patent Publication No. WO 96/40116, published December 19, 1996 by Tang et al.
Give bare numbers, in %.

Below, each entry is followed by its recorded PDGF Kinase %Inhibition result.
O=C1Nc2ccc(I)cc2C1=Cc1ccccc1Sc1ccc(Cl)cc1 :: 9.4
CN1C(=O)C(=C2C(=O)Nc3c(Br)cc(Br)cc32)c2ccccc21 :: -3.5
COc1cccc(OC)c1C=C1C(=O)Nc2c(Br)cc(Br)cc21 :: -7.9
O=C1Nc2ccc(CCCl)cc2C1=Cc1cccc(C(F)(F)F)c1F :: -17.3
COc1c(Br)cc(C=C2C(=O)Nc3ccc(S(=O)(=O)N4CCOCC4)cc32)cc1C(C)(C)C :: 38.6

Would you mind listing PDGF Kinase %Inhibition for each of the following molecules?
1. C=C(C)C1CC=C(C=C2C(=O)Nc3ccc(S(=O)(=O)N4CCOCC4)cc32)CC1 (stereo not drawn)
2. CNS(=O)(=O)c1ccc2c(c1)C(=Cc1coc3ccc(C)cc3c1=O)C(=O)N2
3. CNS(=O)(=O)c1ccc2c(c1)C(=Cc1coc3ccc(Cl)cc3c1=O)C(=O)N2
4. COc1ccc(C=C2C(=O)Nc3ccc(I)cc32)c(OC)c1OC

3.2
8.0
-2.0
5.4

###

Target: PDGF-R (Homo sapiens)
Assay: PDGF-R ELISA
Format: cell-based
Answer each item with its documented PDGF Kinase %Inhibition.
One number for each entry, in %.

Below, each entry is followed by its recorded PDGF Kinase %Inhibition result.
O=C1Nc2ccc(S(=O)(=O)N3CCOCC3)cc2C1=Cc1cc(O)c(O)c(Br)c1 :: 21.4
O=C1Nc2c(Br)cc(Br)cc2C1=Cc1cc(C(F)(F)F)ccc1F :: 0.5
CNS(=O)(=O)c1ccc2c(c1)C(=Cc1cc(OC)cc(OC)c1)C(=O)N2 :: 26.7
O=CN1CCN(c2ccc(C=C3C(=O)Nc4c(Br)cc(Br)cc43)cc2)CC1 :: 17.9
C=C(C)C1CC=C(C=C2C(=O)Nc3ccc(CCCl)cc32)CC1 (stereo not drawn) :: 0.3

Would you mind listing PDGF Kinase %Inhibition for each of the following compounds?
1. COc1ccc(C=C2C(=O)Nc3ccc(CCCl)cc32)c(OC)c1OC
2. COc1cccc(C=C2C(=O)Nc3c(Br)cc(Br)cc32)c1O
3. Cc1ccc2occ(C=C3C(=O)Nc4ccc(S(=O)(=O)N5CCOCC5)cc43)c(=O)c2c1
4. CNS(=O)(=O)c1ccc2c(c1)C(=Cc1ccc(OC)c3ccccc13)C(=O)N2
5. COc1c(C)cc(C=C2C(=O)Nc3ccc(CCCl)cc32)cc1C
6. COc1c(Cl)cc(C=C2C(=O)Nc3c(Br)cc(Br)cc32)cc1C(C)(C)C
7. COc1cc(C)cc(O)c1C=C1C(=O)Nc2ccc(S(=O)(=O)N3CCOCC3)cc21

1: 18.1; 2: 11.7; 3: -23.4; 4: 14.1; 5: 0.1; 6: 8.8; 7: 14.1

Would you mind listing PDGF Kinase %Inhibition for each of the following compounds?
1. CC(C)c1ccc2occ(C=C3C(=O)Nc4ccc(S(=O)(=O)N5CCOCC5)cc43)c(=O)c2c1
2. O=C1Nc2ccc(S(=O)(=O)Nc3ccc(C(F)(F)F)cc3)cc2C1=Cc1csc([N+](=O)[O-])c1
3. CCN(CC)c1ccc(C=C2C(=O)Nc3ccc(Br)c(C)c32)cc1
4. CN(C)c1ccc(C=C2C(=O)Nc3ccc(S(=O)(=O)Nc4ccc(C(F)(F)F)cc4)cc32)c2ccccc12
5. Cc1c(Br)ccc2c1C(=Cc1sccc1Br)C(=O)N2
6. COc1ccc2ccccc2c1C=C1C(=O)Nc2ccc(CCCl)cc21
7. CNS(=O)(=O)c1ccc2c(c1)C(=Cc1ccccc1OCC(=O)O)C(=O)N2
8. CCOc1cccc(C=C2C(=O)Nc3ccc(CCCl)cc32)c1O

[20.3, 26.6, -12.5, -54.2, -5.1, 16.7, -3.9, 14.8]

Would you mind listing PDGF Kinase %Inhibition for each of the following compounds?
1. O=C1Nc2ccc(CCCl)cc2C1=Cc1c(F)cccc1C(F)(F)F
2. CCOC(=O)c1[nH]c(C=C2C(=O)Nc3c(Br)cc(Br)cc32)c(C(=O)OC)c1C
3. Cc1c(Br)ccc2c1C(=Cc1sc3scc(C)c3c1C)C(=O)N2

6.3
4.3
23.0

Would you mind listing PDGF Kinase %Inhibition for each of the following compounds?
1. O=C1Nc2ccc(I)cc2C1=Cc1cc2c(cc1Cl)OCO2
2. CCc1cc(CC)c(C=C2C(=O)Nc3ccc(S(=O)(=O)NC)cc32)[nH]1

[6.4, -3.0]

###

Tested on: MET
Experiment: MET biochemical kinase assay
Parameters: species or system human; concentration or dose not given beside the values
Source text: A met biochemical kinase assay may be performed for met generally as described above for other kinases by substituting that or the other kinases. […] Incorporation of phosphate into the captured receptors is detected with an anti-phosphotyrosine antibody conjugate with horse radish peroxidase using TMB as a substrate for colorimetric detection.
// assign T if Met Kinase % Inhibition falls strictly below 60%, else F (ties count as F)

These recorded examples may help you get a feel for the data.
CNS(=O)(=O)c1ccc2c(c1)C(=Cc1ccc(O)c(O)c1)C(=O)N2 [10719/D03] :: F
CC(C)c1ccc2occ(C=C3C(=O)Nc4ccc(I)cc43)c(=O)c2c1 [10731/B05] :: F
CNS(=O)(=O)c1ccc2c(c1)C(=Cc1cc(Br)cc(Br)c1O)C(=O)N2 [10734/D07] :: F
CNS(=O)(=O)c1ccc2c(c1)C(=Cc1[nH]c(C)c(Br)c1Br)C(=O)N2 [10717/D11] :: T
O=C1Nc2ccc(CCCl)cc2C1=Cc1cc2c([nH]1)CCCC2 [10721/G05] :: T

Record O=C1Nc2ccc(S(=O)(=O)N3CCOCC3)cc2C1=Cc1cc(O)c(O)c(Br)c1 [10723/F04] : is its Met Kinase % Inhibition strictly below 60%?
F

Record Cc1cc(C=C2C(=O)Nc3ccc(CCCl)cc32)cc(C)c1OCc1ccccc1 [10733/G07] : is its Met Kinase % Inhibition strictly below 60%?
T

Record O=C1Nc2c(Br)cc(Br)cc2C1=Cc1ccco1 [10718/A10] : is its Met Kinase % Inhibition strictly below 60%?
F

###

Target: EGFR (Homo sapiens)
Construct: Add 7 ug A431 cell lysate per well (EGFR source); endogenous in cells; host or cells: A431
Sequence (P00533 25-1210): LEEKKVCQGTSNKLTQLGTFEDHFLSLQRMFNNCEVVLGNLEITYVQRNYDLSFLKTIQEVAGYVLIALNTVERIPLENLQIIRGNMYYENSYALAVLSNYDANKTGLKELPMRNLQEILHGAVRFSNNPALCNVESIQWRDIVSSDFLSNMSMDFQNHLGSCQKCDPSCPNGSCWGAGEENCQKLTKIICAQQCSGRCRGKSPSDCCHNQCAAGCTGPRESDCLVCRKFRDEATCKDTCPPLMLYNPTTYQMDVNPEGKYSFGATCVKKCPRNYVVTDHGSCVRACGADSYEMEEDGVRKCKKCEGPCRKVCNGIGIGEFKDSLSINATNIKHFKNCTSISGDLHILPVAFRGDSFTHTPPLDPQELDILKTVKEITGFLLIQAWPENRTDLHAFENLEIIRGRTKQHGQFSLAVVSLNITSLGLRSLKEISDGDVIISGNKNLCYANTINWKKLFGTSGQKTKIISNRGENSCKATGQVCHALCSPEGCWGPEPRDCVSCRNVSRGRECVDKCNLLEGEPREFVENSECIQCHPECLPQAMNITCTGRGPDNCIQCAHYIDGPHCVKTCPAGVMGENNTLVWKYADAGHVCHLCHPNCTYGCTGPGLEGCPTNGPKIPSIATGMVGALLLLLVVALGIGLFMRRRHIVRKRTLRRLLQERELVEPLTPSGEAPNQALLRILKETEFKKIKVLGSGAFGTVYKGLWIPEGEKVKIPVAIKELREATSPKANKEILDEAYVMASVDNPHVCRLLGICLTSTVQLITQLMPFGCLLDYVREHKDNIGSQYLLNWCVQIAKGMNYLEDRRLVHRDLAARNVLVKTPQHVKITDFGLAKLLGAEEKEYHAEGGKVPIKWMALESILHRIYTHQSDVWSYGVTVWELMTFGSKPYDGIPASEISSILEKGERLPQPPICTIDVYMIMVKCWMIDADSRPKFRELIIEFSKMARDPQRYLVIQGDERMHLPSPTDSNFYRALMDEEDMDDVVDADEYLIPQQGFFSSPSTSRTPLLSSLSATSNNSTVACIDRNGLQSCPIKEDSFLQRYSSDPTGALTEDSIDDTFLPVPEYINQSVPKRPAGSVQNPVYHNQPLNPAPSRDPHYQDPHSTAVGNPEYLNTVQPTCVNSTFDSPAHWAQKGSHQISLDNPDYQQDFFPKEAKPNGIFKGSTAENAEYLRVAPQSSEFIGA
Assay: EGFR ELISA assay (in vitro kinase activity, EGFR captured from A431 cell lysate)
Assay type: biochemical
Set-up: concentration or dose not given beside the values
Source text: To provide a consistent method for measuring the in vitro kinase activity of the EGFR in an Enzyme-linked immunosorbent assay (Elisa). Scope. The following protocol describes the procedures used to analyze protein tyrosine kinase activity on the EGFR in an Elisa. The procedure also describes the protocol for the initial screening of drugs for inhibition or activation of protein tyrosine kinase activity. Reagents and Supplies. • 1. […]
Decide using Biochem EGFR %Inhibition: a value greater than or equal to -20% is 1, a smaller one is 0.

These recorded examples may help you get a feel for the data.
COc1ccc(C=C2C(=O)Nc3ccc(S(=O)(=O)Nc4ccc(C(F)(F)F)cc4)cc32)cc1C(C)(C)C :: 1
COc1c(C)cc(C=C2C(=O)Nc3ccc(Br)c(C)c32)cc1C :: 1
O=C1Nc2ccc(S(=O)(=O)Nc3ccc(C(F)(F)F)cc3)cc2C1=Cc1cc(Br)cc(Br)c1O :: 1
O=C1Nc2c(Br)cc(Br)cc2C1=Cc1ccncc1 :: 1
COc1ccc2[nH]cc(C=C3C(=O)Nc4ccc(S(=O)(=O)N5CCOCC5)cc43)c2c1 :: 1

Please check the record O=C1Nc2ccc(I)cc2C1=Cc1c[nH]c2ccccc12 and state if its Biochem EGFR %Inhibition is at or above -20%.
0

Please check the record Cc1c(O)ccc(C=C2C(=O)Nc3c(Br)cc(Br)cc32)c1O and state if its Biochem EGFR %Inhibition is at or above -20%.
1

Please check the record Cc1cc(C=C2C(=O)Nc3ccc(CCCl)cc32)ccc1O and state if its Biochem EGFR %Inhibition is at or above -20%.
0

Please check the record CNS(=O)(=O)c1ccc2c(c1)C(=Cc1c(C)[nH]c(C(=O)OC)c1C(=O)OC)C(=O)N2 and state if its Biochem EGFR %Inhibition is at or above -20%.
1
